Data provenance is patent US20150266977A1.

Target: T1, recombinant cynomolgus monkey sclerostin (cynomolgus monkey)
T1 construct: also called cyno sclerostin; Cyno sclerostin
Experiment: SPR
# reported koff; entries follow
All answers are understood in s⁻¹, so give the number only.

Solved entries (count: 4):
AE10-6-AM3 (antibody, V domains shown, converted into IgG) VH: EVQLVQSGAEVKKPGASVKVSCKVSGYTLTELSMHWVRQAPGKGLEWMGGFDPEDGETIYAQKFQGRVTMTEDTSTDTAYMELSSLRSEDTAVYYCATDSAGYWYKFFQHWGQGTLVTVSS VL: QAVVTQEPSLTVSPGGTVTLTCGSSTGAVTIDHYPYWFQQKPGQAPRTLISDTDDKHSWTPARFSGSLLGGKAALTLSGAQPEDEAEYYCLLDYGGTFVFGGGTKLTVL: 1.6e-06
AE10-6-AM5 (antibody, V domains shown, converted into IgG) VH: EVQLVQSGAEVKKPGASVKVSCKVSGYTLSELSMHWVRQAPGKGLEWMGGFDPEGGETIYAQKFQGRVTMTEDTSTDTAYMELSSLRSEDTAVYYCATDAGGYWYKFFQHWGQGTLVTVSS VL: QAVVTQEPSLTVSPGGTVTLTCGSSTGTVTIDHYPYWFQQKPGQAPRTLISDTDDKHSWTPARFSGSLLGGKAALTLSGAQPEDEAEYYCLLFYGGTVVFGGGTKLTVL: 7.6e-06
AE10-6-AM2 (antibody, V domains shown, converted into IgG; also called rHC + LC S4 clone 102) VH: EVQLVQSGAEVKKPGASVKVSCKVSGYTLTELSMHWVRQAPGKGLEWMGGFDPEAGETIYAQKFQGRVTMTEDTSTDTAYMELSSLRSEDTAVYYCATDGELYWYKFFQHWGQGTLVTVSS VL: QAVVTQEPSLTVSPGGTVTLTCGSSTGAVTIWHYPYWFQQKPGQAPRTLISDTNDKHSWTPARFSGSLLGGKAALTLSGAQPEDEAEYYCLLDYGGSFVFGGGTKLTVL: 2.6e-05
AE10-6-AM8 (antibody, V domains shown, converted into IgG) VH: EVQLVQSGAEVKKPGASVKVSCKVSGYTLSELSIHWVRQAPGKGLEWMGGFDPEDGETIYAQKFQGRVTMTEDTSTDTAYMELSSLRSEDTAVYYCATDSAGYWYKFFQHWGQGTLVTVSS VL: QAVVTQEPSLTVSPGGTVTLTCGSSTGAVTIDHYPYWFQQKPGQAPRTLISDTDDKHSWTPARFSGSLLGGKAALTLSGAQPEDEAEYYCLLDYGGSFVFGGGTKLTVL: 3e-06

Reported koff ( AE10-6-AM6 (antibody, V domains shown, converted into IgG; also called rHC + LC S4 clone 119) VH: EVQLVQSGAEVKKPGASVKVSCKVSGYTLSELSMHWVRQAPGKGLEWMGGFDPEGGETIYAQKFQGRVTMTEDTSTDTAYMELSSLRSEDTAVYYCATDTEGYWEKFFQHWGQGTLVTVSS VL: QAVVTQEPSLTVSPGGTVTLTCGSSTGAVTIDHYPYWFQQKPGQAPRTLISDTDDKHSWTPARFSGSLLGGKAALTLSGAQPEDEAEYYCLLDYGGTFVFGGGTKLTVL ) = 7e-06
